# Target: HDAC-1 (Homo sapiens, UniProt Q13547)
# Sequence (Q13547 whole entry, species assumed): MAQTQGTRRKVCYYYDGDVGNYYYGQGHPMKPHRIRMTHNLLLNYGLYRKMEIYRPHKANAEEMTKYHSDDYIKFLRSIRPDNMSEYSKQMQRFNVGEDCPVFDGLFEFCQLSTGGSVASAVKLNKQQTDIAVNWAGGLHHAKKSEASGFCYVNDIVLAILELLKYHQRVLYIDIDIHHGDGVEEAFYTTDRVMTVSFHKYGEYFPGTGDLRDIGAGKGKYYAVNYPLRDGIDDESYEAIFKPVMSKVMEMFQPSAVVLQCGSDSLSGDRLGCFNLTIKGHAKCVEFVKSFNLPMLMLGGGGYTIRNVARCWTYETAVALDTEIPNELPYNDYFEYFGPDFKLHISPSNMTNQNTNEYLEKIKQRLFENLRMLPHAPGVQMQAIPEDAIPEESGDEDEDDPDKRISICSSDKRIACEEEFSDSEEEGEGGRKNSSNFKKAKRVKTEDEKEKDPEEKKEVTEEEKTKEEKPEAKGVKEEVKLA
pKi: −log10 of the molar value. Structures can show the parent of a compound that is named as a salt.

Compound | pKi
CN(C)Cc1c(C(=O)NCC#Cc2ccc(C(=O)NO)cc2)oc2ccccc12 [Compound 22, Table I, hydrochloride] | 7.66
